test system: Penicillium chrysogenum; test: Antifungal activity against Penicillium chrysogenum CECT 2802 at 50 mg/ml after 72 hrs by agar diffusion test; format: functional; conditions: CECT 2802, 72 h, read-out: DIZ

SMILES_DATA: CC[C@H](CO)NCc1ccc(-n2ccnc2)cc1
VALUE_UNITS: mm
CMP: =
zone of inhibition at 50000 µg/mL: 12
//
SMILES_DATA: CC[C@H](COC(C)=O)N1C(=O)C=CC1=O
VALUE_UNITS: mm
CMP: >
zone of inhibition at 50000 µg/mL: 40
//
SMILES_DATA: CC[C@H](CO)NCc1ccnc2ccccc12
VALUE_UNITS: mm
CMP: =
zone of inhibition at 50000 µg/mL: 20

====

The reader will find reported zone of inhibition at 50000 µg/mL values listed item by item below.
system: Micrococcus luteus; test: Antibacterial activity against Sarcina lutea ATCC 9341 at 50 mg/ml after 24 hrs by agar diffusion test; type: functional; settings: ATCC 9341, 24 h, read-out: DIZ

SMILES_DATA: CC[C@H](CO)NCc1c2ccccc2cc2ccccc12
zone of inhibition at 50000 µg/mL [mm]: 18
//
SMILES_DATA: CC[C@H](CO)NC(=O)c1ccccc1O
zone of inhibition at 50000 µg/mL [mm]: 13
//
SMILES_DATA: CC[C@H](CO)N(Cc1ccccc1)Cc1ccccc1
zone of inhibition at 50000 µg/mL [mm]: 12
//
SMILES_DATA: CC[C@H](CO)NCc1ccc2c(c1)Cc1ccccc1-2
zone of inhibition at 50000 µg/mL [mm]: 18
//
SMILES_DATA: CC[C@H](CO)N(Cc1cc2c(cc1Cl)OCO2)Cc1cc2c(cc1Cl)OCO2
zone of inhibition at 50000 µg/mL [mm]: 10
//
SMILES_DATA: CC[C@H](CO)NCc1ccnc2ccccc12
zone of inhibition at 50000 µg/mL [mm]: 13

====

The reader will find reported zone of inhibition at 50000 µg/mL values listed item by item below.
test system: Micrococcus luteus; assay: Antibacterial activity against Sarcina lutea ATCC 9341 at 50 mg/ml after 24 hrs by agar diffusion test; assay type: functional; settings: ATCC 9341, 24 h, read-out: DIZ
QUANTITY: zone of inhibition at 50000 µg/mL (mm)

SMILES_DATA: CC[C@H](CO)NCc1ccc(-n2ccnc2)cc1
ASSAY_RESULT: 18

SMILES_DATA: CC[C@H](CO)N1C(=O)C=C(C)C1=O
ASSAY_RESULT: 21

SMILES_DATA: CC[C@H](CO)NCc1ccc(-c2ccccc2)cc1
ASSAY_RESULT: 17

SMILES_DATA: CC[C@H](CO)NC(=S)Nc1ccccc1
ASSAY_RESULT: 12

SMILES_DATA: CC[C@H](CO)NCc1ccc2ccc3cccc4ccc1c2c34
ASSAY_RESULT: 13

SMILES_DATA: CC[C@H](CO)NC1c2ccccc2-c2ccccc21
ASSAY_RESULT: 17

SMILES_DATA: CC[C@H](CO)NCc1cccc2ccccc12
ASSAY_RESULT: 13

====

The reader will find reported zone of inhibition at 50000 µg/mL values listed item by item below.
tested on: Priestia megaterium; assay: Antibacterial activity against Bacillus megaterium NRRL 1353895 at 50 mg/ml after 24 hrs by agar diffusion test; assay type: functional; conditions: NRRL 1353895, 24 h, read-out: DIZ

SMILES_DATA: CC[C@H](CO)NP(=O)(c1ccccc1)c1ccccc1
VALUE_UNITS: mm
zone of inhibition at 50000 µg/mL: 16
--
SMILES_DATA: CC[C@@H]1COc2cc3ccccc3c(=O)n21
VALUE_UNITS: mm
zone of inhibition at 50000 µg/mL: 13
--
SMILES_DATA: CC[C@H](CO)NC(=O)/C=C/c1ccccc1
VALUE_UNITS: mm
zone of inhibition at 50000 µg/mL: 12
--
SMILES_DATA: CC[C@H](CO)NCc1ccc2ccccc2c1
VALUE_UNITS: mm
zone of inhibition at 50000 µg/mL: 17
--
SMILES_DATA: CC[C@H](CO)NCc1ccc2c(c1)Cc1ccccc1-2
VALUE_UNITS: mm
zone of inhibition at 50000 µg/mL: 16
--
SMILES_DATA: CC[C@H](CO)/N=C1\C[C@H]2CC[C@]1(C)C2(C)C
VALUE_UNITS: mm
zone of inhibition at 50000 µg/mL: 10
--
SMILES_DATA: CC[C@H](CO)N(Cc1cc2c(cc1Cl)OCO2)Cc1cc2c(cc1Cl)OCO2
VALUE_UNITS: mm
zone of inhibition at 50000 µg/mL: 10
--
SMILES_DATA: CC[C@H](CO)NC(=S)Nc1ccccc1
VALUE_UNITS: mm
zone of inhibition at 50000 µg/mL: 13
--
SMILES_DATA: CC[C@H](COC(C)=O)N1C(=O)C=CC1=O
VALUE_UNITS: mm
zone of inhibition at 50000 µg/mL: 40
--
SMILES_DATA: CC[C@H](CO)NCc1c2ccccc2cc2ccccc12
VALUE_UNITS: mm
zone of inhibition at 50000 µg/mL: 20

====

The reader will find reported MIC values listed item by item below.
test system: Mycobacterium tuberculosis; assay: Antimycobacterial activity against Mycobacterium tuberculosis H37Rv after 45 days; type: functional
QUANTITY: MIC

SMILES_DATA: CC[C@@H](CO)NC(=O)/C=C/c1ccccc1
SYSTEM: Mycobacterium tuberculosis
ASSAY_RESULT: > 22.8 µM
//
SMILES_DATA: CC[C@@H](CO)NC(=O)c1ccccc1O
SYSTEM: Mycobacterium tuberculosis
ASSAY_RESULT: > 23.9 µM
//
SMILES_DATA: CC[C@H](CO)N(Cc1cc2c(cc1Cl)OCO2)Cc1cc2c(cc1Cl)OCO2
SYSTEM: Mycobacterium tuberculosis
ASSAY_RESULT: > 11.7 µM
//
SMILES_DATA: CC[C@H](CO)NC(=O)c1cccc2ccccc12
SYSTEM: Mycobacterium tuberculosis
ASSAY_RESULT: > 20.6 µM
//
SMILES_DATA: CC[C@H](CO)N(Cc1ccccc1)Cc1ccccc1
SYSTEM: Mycobacterium tuberculosis
ASSAY_RESULT: > 18.6 µM
//
SMILES_DATA: CC[C@@H](CO)NP(=O)(c1ccccc1)c1ccccc1
SYSTEM: Mycobacterium tuberculosis
ASSAY_RESULT: > 17.3 µM
//
SMILES_DATA: CC[C@H](CO)/N=C1\C[C@H]2CC[C@]1(C)C2(C)C
SYSTEM: Mycobacterium tuberculosis
ASSAY_RESULT: > 22.4 µM
//
SMILES_DATA: CC[C@H](CO)NC(=O)c1ccccc1Br
SYSTEM: Mycobacterium tuberculosis
ASSAY_RESULT: > 18.4 µM
//
SMILES_DATA: CC[C@H](CO)NC(=O)c1ccc2ccccc2c1
SYSTEM: Mycobacterium tuberculosis
ASSAY_RESULT: > 20.6 µM
//
SMILES_DATA: CC[C@H](CO)Nc1ncccn1
SYSTEM: Mycobacterium tuberculosis
ASSAY_RESULT: > 29.9 µM
//
SMILES_DATA: CC[C@H](CO)NCc1ccc(-c2ccccc2)cc1
SYSTEM: Mycobacterium tuberculosis
ASSAY_RESULT: > 19.6 µM
//
SMILES_DATA: CC[C@H](CO)NC(=O)Nc1cccc2ccccc12
SYSTEM: Mycobacterium tuberculosis
ASSAY_RESULT: > 19.4 µM
//
SMILES_DATA: CC[C@H](CO)N1C(=O)c2cccc3c(Br)ccc(c23)C1=O
SYSTEM: Mycobacterium tuberculosis
ASSAY_RESULT: > 14.4 µM
//
SMILES_DATA: CC[C@H](CO)NCc1ccc2ccccc2c1
SYSTEM: Mycobacterium tuberculosis
ASSAY_RESULT: > 21.8 µM
//
SMILES_DATA: CC[C@@H](CO)N1Cc2ccccc2C1=O
SYSTEM: Mycobacterium tuberculosis
ASSAY_RESULT: > 31.2 µM
//
SMILES_DATA: CCNC(=O)N[C@@H](CC)CO
SYSTEM: Mycobacterium tuberculosis
ASSAY_RESULT: > 24.4 µM
//
SMILES_DATA: CC[C@H](CO)NC(=O)c1ccncc1
SYSTEM: Mycobacterium tuberculosis
ASSAY_RESULT: > 25.7 µM
//
SMILES_DATA: CC[C@H](CO)NCc1ccccc1OC
SYSTEM: Mycobacterium tuberculosis
ASSAY_RESULT: > 23.9 µM
//
SMILES_DATA: CC[C@H](CO)N(CC(=O)Nc1c(C)cccc1C)CC(=O)Nc1c(C)cccc1C
SYSTEM: Mycobacterium tuberculosis
ASSAY_RESULT: > 12.2 µM
//
SMILES_DATA: CC[C@H](CO)N1C(=O)c2ccccc2C1=O
SYSTEM: Mycobacterium tuberculosis
ASSAY_RESULT: > 22.8 µM
//
SMILES_DATA: CC[C@H](CO)NC(c1ccccc1)(c1ccccc1)c1ccccc1
SYSTEM: Mycobacterium tuberculosis
ASSAY_RESULT: > 15.1 µM
//
SMILES_DATA: CC[C@H](CO)NC(=S)Nc1ccccc1
SYSTEM: Mycobacterium tuberculosis
ASSAY_RESULT: > 22.3 µM
//
SMILES_DATA: CC[C@H](CO)N1C(=O)CCC1=O
SYSTEM: Mycobacterium tuberculosis
ASSAY_RESULT: > 29.2 µM
//
SMILES_DATA: CC[C@H](CO)N1C(=O)c2cccc3cccc(c23)C1=O
SYSTEM: Mycobacterium tuberculosis
ASSAY_RESULT: > 18.6 µM
//
SMILES_DATA: CC[C@H](CO)NS(=O)(=O)c1ccc(NC(C)=O)cc1
SYSTEM: Mycobacterium tuberculosis
ASSAY_RESULT: > 17.5 µM
//
SMILES_DATA: CC[C@@H](CO)NC(=O)c1ccccc1C(=O)N[C@@H](CC)CO
SYSTEM: Mycobacterium tuberculosis
ASSAY_RESULT: > 16.2 µM
